Taken from PubChem BioAssay (NCATS).

Give activity change, negative = inhibition for every item shown.
experiment: AP1 Signaling Pathway (AID 357); settings: ME-180 (cervical carcinoma) AP-1-bla reporter, EGF-induced, beta-lactamase ratio, 5 h; at 7.69 µM (top of the series) unless noted;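 note: ME-180 reporter cells stimulated with EGF at its EC50 level; % is set by controls: 0 for no effect and ±100 for the full control effect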
Results filed as inconclusive are left out. The source made the active and inactive calls. Calls come from the whole dose curve; as a rule, active = well fitted curve in either direction with a large enough effect (not every such curve was filed as active); inconclusive = small, poorly fitted or top-dose-only effect, or another doubt; inactive = flat fitted curve, though single readings scatter.

Request: Field request: activity change, negative = inhibition | item: CC(=O)Nc1c(C)cc(OCC(=O)O)cc1C
Result: -0.915% (inactive)

Request: Would you mind telling me what activity change, negative = inhibition value was observed for CO[C@@H](NC(N)=O)C(=O)O ?
Result: -1% (inactive)

Request: Which measured activity change, negative = inhibition value corresponds to CC1(C)S[C@@H]2[C@H](C(=O)O)N=C(Cc3ccccc3)N2[C@H]1C(=O)O ?
Result: 2.18% (inactive)

Request: What does the record list as activity change, negative = inhibition for CC(C)C12CC[C@@]3(CC[C@H]4[C@@](C)(CCC[C@]4(C)C(=O)O)[C@@H]3C1)[C@@H](CN)C2 ?
Result: -3.83% (inactive)

Request: Param item = O=[N+]([O-])c1ccc(NN=C2c3ccccc3Cc3ccccc32)c([N+](=O)[O-])c1 ; retrieve measured activity change, negative = inhibition.
Result: 26.1% (inactive)

Request: Record request: activity change, negative = inhibition value, item CC1CCN(CC[S-])CC1.O.O.[Cl][Pt]
Result: 29.8% (inactive)

Request: Recorded activity change, negative = inhibition for Cc1ccc(N=Nc2c(O)c(S(=O)(=O)O)cc3cc(S(=O)(=O)O)ccc23)c(C)c1 , please?
Result: 19.9% (inactive)

Request: Item under review: O=C(O)c1ccc(SSc2ccc(C(=O)O)cn2)nc1 . Reported activity change, negative = inhibition?
Result: -2.82% (inactive)

Request: Which activity change, negative = inhibition value belongs to c1ccc(B2OC[C@@H]3OB(c4ccccc4)O[C@H]([C@@H]4COB(c5ccccc5)O4)[C@@H]3O2)cc1 ?
Result: -8.96% (inactive)

Request: Fill in: activity change, negative = inhibition of CC(C)Cn1cnc2c(SCc3ccc(Cl)cc3Cl)nc(N)nc21 is ___
Result: -27.8% (inactive)

Request: Looking for the measured activity change, negative = inhibition of Cn1cnc([N+](=O)[O-])c1[Se]c1nc(N)nc2c1ncn2[C@@H]1O[C@@H](CO)[C@H](O)[C@@H]1O , can you help?
Result: 4.67% (inactive)

Request: Look up activity change, negative = inhibition for this compound: O=C(O)[C@@H](O)[C@@H](O)[C@H](O)C(=O)CO
Result: -1.75% (inactive)

Request: Request the reported activity change, negative = inhibition associated with Clc1ccccc1C(Nc1ncccn1)Nc1ncccn1
Result: 4.25% (inactive)

Request: # get_value(readout='activity change, negative = inhibition', item= COc1ccc2cc1Oc1ccc(cc1)C[C@@H]1c3c(cc(OC)c4c3Oc3cc5c(cc3O4)CCN[C@H]5C2)CCN1C )
Result: -4.55% (inactive)

Request: Suppose we examine the compound COc1ccc(OC)c(-c2cc(C(=O)O)c3cc4ccccc4cc3n2)c1 ; what activity change, negative = inhibition value has been reported?
Result: 4.44% (inactive)

Request: So what's the measured activity change, negative = inhibition for this one? CO/N=C(\C(=O)N[C@@H]1C(=O)N2C(C(=O)O)=C(CSc3nc(=O)c(O)nn3C)CS[C@@H]12)c1csc(N)n1
Result: -11.1% [at 38 µM] (inactive)

Request: Which measured activity change, negative = inhibition value corresponds to Clc1ccc2c(NC3CCC(N4CCCCC4)CC3)ccnc2c1 (configuration not stated) ?
Result: -12.3% (inactive)

Request: # get_value(readout='activity change, negative = inhibition', item= Nc1nc2c(C(=O)NCc3cccs3)nnn2c2cccc(Cl)c12 )
Result: 2.54% (inactive)

Request: Would you mind telling me what activity change, negative = inhibition value was observed for O=C(O)CCCCn1cnc2c(=S)nc[nH]c21 ?
Result: 8.11% (inactive)

Request: Please report the recorded activity change, negative = inhibition for CN(C)S(=O)(=O)c1nc(Cl)c2[nH]cnc2n1 .
Result: 1.09% (inactive)

Request: Quick one: activity change, negative = inhibition of Nc1nc2c(nc(Br)n2[C@@H]2O[C@H]3COP(=O)(O)O[C@@H]3[C@H]2O)c(=O)[nH]1 ?
Result: 8.86% [at 38 µM] (inactive)

Request: For CN(C)CCCn1c2ccccc2c2cnccc21 , what is its reported activity change, negative = inhibition?
Result: 1.6% (inactive)

Request: Item Cc1ccc(CCCC(=O)O)cc1C has what recorded activity change, negative = inhibition?
Result: 2.32% (inactive)

Request: Consider the compound shown here: Cc1ccc(S(=O)(=O)NC(=O)OC23COCN2COC3)cc1 What is its recorded activity change, negative = inhibition?
Result: 8.05% (inactive)

Request: Look at this compound and give its reported activity change, negative = inhibition. CN(C)Cc1ccc(-c2cc3onc(-c4ccccc4)c3c(=O)n2C)cc1
Result: 12.1% (inactive)

Request: Reported activity change, negative = inhibition, compound O=C(O)CCC(=O)c1ccc2sc3ccccc3c2c1 : ____
Result: 3.02% (inactive)

Request: Can you share its activity change, negative = inhibition? I mean this compound: O=C(O)c1cc2ccccc2c(S(=O)(=O)O)c1O
Result: 2.94% (inactive)

Request: For the compound shown here, C=C/C(C)=C/[C@]1(C)SC(=O)C(C)=C1O , give the reported activity change, negative = inhibition.
Result: -3.15% [at 38 µM] (inactive)

Request: Tell me the measured activity change, negative = inhibition of CC#C[C@@]1(O)CC[C@@H]2[C@@H]3CCC4=CC(=O)CCC4=C3[C@@H](c3ccc(N(C)C)cc3)C[C@]21C , please.
Result: 5.58% [at 38 µM] (inactive)

Request: Can you share its activity change, negative = inhibition? I mean this compound: Cn1c(=O)c2[nH]c(CCCCc3nc4c([nH]3)c(=O)n(C)c(=S)n4C)nc2n(C)c1=S
Result: 1.54% (inactive)

Request: Look up activity change, negative = inhibition: C=CCSc1nc2ccccc2c(=O)n1Cc1ccco1
Result: -0.523% (inactive)

Request: Look up activity change, negative = inhibition: C[C@@H]1CCCC(CC(=O)O)(CC(=O)O)C1
Result: -2.04% (inactive)

Request: Please give the measured activity change, negative = inhibition for this compound: N/N=C1/c2ccccc2N[C@H]1OC(=O)Nc1cccc(Cl)c1
Result: -17.3% (inactive)

Request: Please give the measured activity change, negative = inhibition for this compound: O=C(O)[C@@H]1CCCN1Cc1ccc2c(c1)OCO2
Result: 2.76% (inactive)

Request: Could you share which activity change, negative = inhibition value was measured for O=C(O)Cc1cc(Cl)ccc1O ?
Result: -8.98% (inactive)

Request: Any idea what its activity change, negative = inhibition is? The compound is O=C1c2ccccc2C(=O)c2c1ccc(C(=O)O)c2-c1ccc2ccccc2c1
Result: 1.13% (inactive)

Request: Need activity change, negative = inhibition of Cc1cccc2c1Oc1ccccc1[C@@H]2NC(=O)c1ccc([N+](=O)[O-])cc1 , thanks.
Result: 0.106% (inactive)
